- assayTarget: M2 muscarinic receptor (Homo sapiens, UniProt P08172)
- Construct: expressed in transfected cells; host or cells: CHO (M2-CHO)
- Sequence (P08172 whole entry): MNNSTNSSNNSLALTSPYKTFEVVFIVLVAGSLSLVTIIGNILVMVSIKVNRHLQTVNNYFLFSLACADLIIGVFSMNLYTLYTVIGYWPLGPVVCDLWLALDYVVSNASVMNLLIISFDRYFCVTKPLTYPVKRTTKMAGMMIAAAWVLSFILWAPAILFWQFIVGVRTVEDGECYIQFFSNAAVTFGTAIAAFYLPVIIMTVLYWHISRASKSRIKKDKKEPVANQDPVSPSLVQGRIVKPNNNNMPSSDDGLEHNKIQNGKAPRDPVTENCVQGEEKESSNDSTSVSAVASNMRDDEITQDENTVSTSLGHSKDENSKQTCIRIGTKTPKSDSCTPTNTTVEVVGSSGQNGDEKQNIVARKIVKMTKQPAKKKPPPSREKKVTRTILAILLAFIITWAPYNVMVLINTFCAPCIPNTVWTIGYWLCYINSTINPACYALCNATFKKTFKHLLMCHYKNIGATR
- methodSummary: Functional mobilization of intracellular calcium (FLIPR), M2-CHO cells
- Type: cell-based
- setupConditions: 100% efficacy = maximum response obtained with the Carbachol control
parameterMeasured: Emax

Consider the worked cases shown below.
{"compound": "c1ccc2c(c1)C1OCCC1CC21CCN(CC2CCCCC2)CC1 (centres unmarked)", "parameterMeasured": "Emax", "observedValue": "< 25%"}
{"compound": "CN1C(=O)C[C@@H]2CC3(CCN(C4CCCCC4)CC3)c3ccccc3[C@@H]21", "parameterMeasured": "Emax", "observedValue": "25 to 100%"}
{"compound": "O=C1C[C@@H]2[C@H](N1)c1ccccc1C21CCN(C2CCCCC2)CC1", "parameterMeasured": "Emax", "observedValue": "< 25%"}
{"compound": "CCOC(=O)N1CCC(N2CCC3(CC2)C[C@H]2CC(=O)N(CC(=O)O)[C@H]2c2ccccc23)CC1", "parameterMeasured": "Emax", "observedValue": "< 25%"}
{"compound": "CC(=O)N1CC[C@@H]2CC3(CCN(C4CCCCC4)CC3)c3ccccc3[C@@H]21", "parameterMeasured": "Emax", "observedValue": "< 25%"}

// input: 3 compounds below; output: Emax for each
1. c1ccc2c(c1)C1OCCC1CC21CCN(C2C[C@H]3CC[C@@H]2C3)CC1 (some centres unmarked)
2. CCOC(=O)N1CCC(N2CCC3(CC2)CC2CC(=O)OC2c2ccccc23)CC1 (centres unmarked)
3. COCCN1C(=O)C[C@@H]2CC3(CCN(CC4CCCCC4)CC3)c3ccccc3[C@@H]21

Out:
1. < 25%
2. 25 to 100%
3. < 25%
